Target: TLR8 (Homo sapiens, UniProt Q9NR97)
Sequence (Q9NR97 27-1041): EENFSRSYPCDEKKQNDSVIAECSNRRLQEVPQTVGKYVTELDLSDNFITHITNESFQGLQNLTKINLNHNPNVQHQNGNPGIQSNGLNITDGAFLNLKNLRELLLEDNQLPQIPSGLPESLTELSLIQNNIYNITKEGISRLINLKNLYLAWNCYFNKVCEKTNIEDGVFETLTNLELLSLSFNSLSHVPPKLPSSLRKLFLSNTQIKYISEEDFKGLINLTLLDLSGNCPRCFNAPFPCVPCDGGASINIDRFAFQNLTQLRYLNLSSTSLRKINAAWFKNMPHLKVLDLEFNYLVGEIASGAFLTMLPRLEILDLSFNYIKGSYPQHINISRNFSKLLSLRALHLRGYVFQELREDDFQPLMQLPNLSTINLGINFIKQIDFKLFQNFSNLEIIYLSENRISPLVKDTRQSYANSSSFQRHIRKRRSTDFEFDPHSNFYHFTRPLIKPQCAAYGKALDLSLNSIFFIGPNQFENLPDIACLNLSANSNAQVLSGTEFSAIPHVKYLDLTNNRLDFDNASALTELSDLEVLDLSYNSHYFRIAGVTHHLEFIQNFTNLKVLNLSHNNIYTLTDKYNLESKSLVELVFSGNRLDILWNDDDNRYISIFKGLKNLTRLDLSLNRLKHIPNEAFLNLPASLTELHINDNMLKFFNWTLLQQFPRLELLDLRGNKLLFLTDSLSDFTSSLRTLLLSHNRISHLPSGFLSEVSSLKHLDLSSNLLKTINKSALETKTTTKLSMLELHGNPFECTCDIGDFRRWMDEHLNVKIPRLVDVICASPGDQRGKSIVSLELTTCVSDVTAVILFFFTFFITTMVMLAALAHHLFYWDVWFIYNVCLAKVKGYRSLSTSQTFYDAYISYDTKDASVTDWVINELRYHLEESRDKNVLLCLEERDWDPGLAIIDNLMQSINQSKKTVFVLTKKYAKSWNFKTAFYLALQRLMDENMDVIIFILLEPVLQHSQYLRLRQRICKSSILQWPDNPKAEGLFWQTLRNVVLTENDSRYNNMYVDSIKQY
Assay: HEK-TLR8 NF-κB-luciferase reporter, R848 or Motolimod stimulation (potentiation or inhibition)
Format: cell-based
Design: expressed in transfected cells; host or cells: 293XLhTLR8 (HEK293)
Details: HEK-TLR8; 500 nM ASO; fold increase relative to R848 without ASO (Alharbi et al., 2020)
In the oligonucleotide strings, read from the 5' end, every base follows the letter of its sugar. An asterisk marks phosphorothioate; unmarked linkages are phosphodiester. Other units and linkages are bracketed, terminal groups are in braces. A string of capitals states the bases alone. d = 2'-deoxy (DNA); m = 2'-O-methyl
Note to self: values exactly at 6 fold are yes (1). So TLR8-500 nM: averaged NF-κB-Luciferase relative to R848 at or above 6 fold is yes (1), below is no (0).

mA*mG*mA*mU*mU*A*T*C*T*T*C*T*T*T*T*mA*mA*mU*mU*mU (AGAUUATCTTCTTTTAAUUU; sugars from the 5' end m5 d10 m5, all phosphorothioate, methylation of C not given here) [[CDKN2B-AS1]2130] :: yes (1)
mU*mU*mA*mG*mC*T*C*C*T*T*G*C*C*T*C*mG*mU*mU*mC*mC (mU*mU*mA*mG*mC*dT*dC*dC*dT*dT*dG*dC*dC*dT*dC*mG*mU*mU*mC*mC; antisense) [[LINC-PINT] 1222] :: yes (1)
mC*mU*mU*mC*mU*C*T*C*T*G*G*T*C*C*C*mA*mU*mC*mC*mC (mC*mU*mU*mC*mU*dC*dT*dC*dT*dG*dG*dT*dC*dC*dC*mA*mU*mC*mC*mC) [[LINC-PINT]112] :: yes (1)
mA*mG*mG*mC*mC*T*C*C*A*G*T*G*T*C*T*mU*mC*mU*mC*mC (mA*mG*mG*mC*mC*dT*dC*dC*dA*dG*dT*dG*dT*dC*dT*mU*mC*mU*mC*mC; antisense) [[CDKN2B-AS1]2218] :: no (0)
mC*mC*mA*mU*mC*C*C*T*T*C*T*G*C*T*G*mC*mC*mA*mA*mG (mC*mC*mA*mU*mC*dC*dC*dT*dT*dC*dT*dG*dC*dT*dG*mC*mC*mA*mA*mG; antisense) [ILING-PINT199] :: no (0)
mA*mG*mA*mA*mA*G*A*A*G*C*A*A*A*G*A*mU*mU*mC*mA*mA (AGAAAGAAGCAAAGAUUCAA; sugars from the 5' end m5 d10 m5, all phosphorothioate, methylation of C not given here) [[CDKN2B-AS1]1519] :: no (0)
mC*mA*mG*mU*mG*T*T*T*T*T*A*A*T*T*T*mU*mG*mU*mA*mG (mC*mA*mG*mU*mG*dT*dT*dT*dT*dT*dA*dA*dT*dT*dT*mU*mG*mU*mA*mG; antisense) [[CDKN2B-AS1]613] :: yes (1)
mA*mA*mA*mU*mG*T*C*C*T*G*G*C*C*C*T*mC*mA*mC*mU*mG (mA*mA*mA*mU*mG*dT*dC*dC*dT*dG*dG*dC*dC*dC*dT*mC*mA*mC*mU*mG) [[LINC-PINT]148.1] :: no (0)
mG*mU*mC*mC*mC*A*G*G*C*C*T*C*C*A*G*mU*mG*mU*mC*mU (mG*mU*mC*mC*mC*dA*dG*dG*dC*dC*dT*dC*dC*dA*dG*mU*mG*mU*mC*mU; antisense) [[CDKN2B-AS1]2223] :: no (0)
mC*mU*mC*mU*mC*T*G*G*T*C*C*C*A*T*C*mC*mC*mU*mU*mC (mC*mU*mC*mU*mC*dT*dG*dG*dT*dC*dC*dC*dA*dT*dC*mC*mC*mU*mU*mC; antisense) [[LINC-PINT]109] :: yes (1)
mU*mC*mC*mC*mA*A*C*T*C*T*T*C*T*A*A*mC*mU*mC*mG*mU (mU*mC*mC*mC*mA*dA*dC*dT*dC*dT*dT*dC*dT*dA*dA*mC*mU*mC*mG*mU; antisense) [[LINC-PINT]1284 KL] :: yes (1)
mA*mA*mU*mA*mU*C*T*G*C*T*G*C*C*C*A*mC*mC*mU*mU*mC (mA*mA*mU*mA*mU*dC*dT*dG*dC*dT*dG*dC*dC*dC*dA*mC*mC*mU*mU*mC; antisense) [[CDKN2B-AS1]832] :: no (0)
mG*mU*mC*mC*mG*T*A*C*C*T*C*C*A*C*C*mC″mA*mC*mC*mG [[LINC-PINT]727.1] :: no (0)
mG*mG*mA*mU*mU*A*A*A*A*C*A*G*A*T*T*mA*mA*mU*mA*mC (GGAUUAAAACAGATTAAUAC; sugars from the 5' end m5 d10 m5, all phosphorothioate, methylation of C not given here) [[CDKN2B-AS1]1774] :: no (0)
mG*mU*mG*mU*mU*T*T*T*A*A*T*T*T*T*G*mU*mA*mG*mA*mG (mG*mU*mG*mU*mU*dT*dT*dT*dA*dA*dT*dT*dT*dT*dG*mU*mA*mG*mA*mG) [[CDKN2B-AS1]611] :: no (0)
mC*mA*mU*mC*mC*C*T*T*C*T*G*C*T*G*C*mC*mA*mA*mG*mC (mC*mA*mU*mC*mC*dC*dT*dT*dC*dT*dG*dC*dT*dG*dC*mC*mA*mA*mG*mC; antisense) [[LINC-PINT]98] :: yes (1)
mU*mC*mC*mC*mA*T*C*C*C*T*T*C*T*G*C*mU*mG*mA*mC*mA (UCCCATCCCTTCTGCUGACA; sugars from the 5' end m5 d10 m5, all phosphorothioate, methylation of C not given here) [[LINC-PINT]101] :: yes (1)
mC*mA*mG*mG*mC*C*T*C*C*A*G*T*G*T*C*mU*mU*mC*mU*mC (mC*mA*mG*mG*mC*dC*dT*dC*dC*dA*dG*dT*dG*dT*dC*mU*mU*mC*mU*mC; antisense) [[CDKN2B-AS1]2219] :: no (0)
mG*mG*mU*mC*mU*C*C*T*C*C*A*C*A*C*C*mC*mU*mU*mC*mU (mG*mG*mU*mC*mU*dC*dC*dT*dC*dC*dA*dC*dA*dC*dC*mC*mU*mU*mC*mU; antisense) [[LINC-PINT]127] :: no (0)
